- System: HUVEC TNFalpha-induced E-selectin immunofluorescence imaging
- PROTOCOL NOTES: E-selectin expression inhibitors, dose response, confirmation, imaging, HUVEC, immunofluorescence, TNFalpha stimulation (AID 517)
Activity calls are given as the source filed them.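 How the source made its calls: active means activity score of 15 or more, from fitted potency or summed per-dose inhibition z-scores, roughly IC50 of 5 µM; inactive means the rest.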
Outcome codes: YES (active), NO (inactive)

{"MOLECULE": "COC(=O)C1=C(C)NC(C)=C(C(=O)OC)C1C(=O)OC1CCCCC1=O (stereo not given)", "LABEL": "NO"}
{"MOLECULE": "CC(C)C(C(=O)Nc1ccc2c(c1)OCO2)N1C(=O)c2ccccc2C1=O (stereo not given)", "LABEL": "NO"}
{"MOLECULE": "Cc1cc(NC(=O)CS(=O)(=O)c2cn(Cc3ccccc3Cl)c3ccccc23)no1", "LABEL": "NO"}
{"MOLECULE": "O=C(OCc1ccc2c(c1)OCO2)c1ccc(S(=O)(=O)N2CCCCC2)cc1", "LABEL": "NO"}
{"MOLECULE": "COc1ccc(Cc2nc3ccc(S(N)(=O)=O)cc3[nH]2)cc1OC", "LABEL": "NO"}
{"MOLECULE": "COc1ccc(OC)c2[nH]c(=O)c(CCNC(=O)CC(C)C)cc12", "LABEL": "NO"}
{"MOLECULE": "CC1CCN(CCC(=O)Nc2ccc(Br)cc2)CC1", "LABEL": "NO"}
{"MOLECULE": "COc1cccc2c1C(=O)c1c(O)c3c(c(O)c1C2=O)C[C@@](O)(C(C)=O)C[C@@H]3O[C@H]1C[C@H](N)[C@H](O)[C@H](C)O1", "LABEL": "YES"}
{"MOLECULE": "O=C(Nc1ccc2[nH]c3c(c2c1)CCCC3)c1ccco1", "LABEL": "NO"}
{"MOLECULE": "COc1ccc(NC(=O)CSc2nnc(-c3ccccc3C)n2C)cc1", "LABEL": "NO"}

Each recorded value in this set is attributed to PubChem BioAssay AID517.
